Values from patent EP4768485A1

So I've got a bunch of molecules here, and I need their pIC50 values.
Experimental System: SaFabI (Staphylococcus aureus, UniProt Q6GI75)
Sequence (Q6GI75 whole entry): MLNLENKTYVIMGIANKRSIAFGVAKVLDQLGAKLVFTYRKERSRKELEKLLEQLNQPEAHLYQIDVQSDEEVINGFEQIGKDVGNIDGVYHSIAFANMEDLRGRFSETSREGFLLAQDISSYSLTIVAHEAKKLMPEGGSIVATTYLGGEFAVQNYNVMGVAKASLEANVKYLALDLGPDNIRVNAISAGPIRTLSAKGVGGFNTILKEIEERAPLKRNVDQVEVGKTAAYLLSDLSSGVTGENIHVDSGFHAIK
Give bare numbers, as −log10 of the molar value.

Cc1c(CN(C)C(=O)/C=C/c2cnc3c(c2)C2CC2(N)C(=O)N3)oc2c(C3CC3)cccc12 (single isomer, unassigned) [Compound 2b] :: 7.92

Working through the 4 molecules below one at a time, give pIC50 for each.
1. Cc1c(CN(C)C(=O)/C=C/c2cnc3c(c2)C2CC2(N)C(=O)N3)oc2c(C)cccc12 (stereo not drawn) [Compound 1a]
2. Cc1c(CN(C)C(=O)/C=C/c2cnc3c(c2)C2CC2(N)C(=O)N3)oc2ccccc12 (stereo not drawn)
3. Cc1c(CN(C)C(=O)/C=C/c2cnc3c(c2)C2CC2(N)C(=O)N3)oc2c(C)cccc12 (stereo not drawn) [Compound 1b]
4. Cc1c(CN(C)C(=O)/C=C/c2cnc3c(c2)C2CC2(N)C(=O)N3)oc2c(C3CC3)cccc12 (single isomer, unassigned) [Compound 2a]

Ans:
[8.30, 8.00, 7.92, 8.00]

Q: Which value of pIC50 has been reported for Cc1c(CN(C)C(=O)/C=C/c2cnc3c(c2)CCC(=O)N3)oc2ccccc12 [Debio-1452, reference compound] in the records?
Ans: 8.70
